- Test system: Liver microsomes
- PROTOCOL DESCRIPTION: Intrinsic clearance in human liver microsomes assessed per ug of protein
- Type: ADME, Microsome
VALUE TYPE: CLint (µL/min/mg)

| SMILES RECORD | MEASUREMENT UNIT | CLint |
| --- | --- | --- |
| COc1cnc(-c2cccc3c2C[C@@H](NC(=O)c2ccc(COCC(F)(F)F)nc2)CO3)cn1 | µL/min/mg | 16 |

A: O=C(N[C@@H]1COc2cccc(-c3ccncc3)c2C1)c1ccc(OCC(F)(F)F)nc1
B: O=C(N[C@@H]1COc2cccc(-c3ccnc(CO)c3)c2C1)c1ccc(OCC(F)(F)F)nc1
QUERY: Lower value for measured CLint? Options: A , B In your reply, give the label of the chosen option.
RESULT: B

---

- Test system: Liver microsomes
- PROTOCOL DESCRIPTION: Intrinsic clearance in human liver microsomes assessed per ug of protein
- Format: ADME, Microsome
VALUE TYPE: CLint (µL/min/mg)

| COMPOUND | MEASUREMENT UNIT | NUMERIC RESULT |
| --- | --- | --- |
| Cc1nn(-c2ccccc2)nc1C(=O)N[C@@H]1COc2cccc(N3CCN(C)CC3)c2C1 | µL/min/mg | 14 |

a: CN1CCN(c2cccc3c2C[C@H](NC(=O)c2ccc(OC(F)(F)F)cc2)CO3)CC1
b: CC(O)c1ccc(-c2cccc3c2C[C@H](NC(=O)c2ccc(OCCOCC(F)(F)F)nc2)CO3)cn1 (some centres undefined)
c: O=C(N[C@@H]1COc2cccc(-c3cccnc3)c2C1)c1ccc(OCC(F)(F)F)nc1
d: CCCCOc1ccc(C(=O)N[C@@H]2COc3cccc(N4CCN(C)CC4)c3C2)cc1
QUERY: Sort the compounds on CLint; start with the lowest figure. List the labels in the requested order.
RESULT: a, b, c, d

---

- PROTOCOL DESCRIPTION: Solubility of the compound
- Format: physicochemical
VALUE TYPE: solubility (µM)

Solved cases (2 shown):
| SMILES RECORD | VALUE TYPE | MEASUREMENT UNIT | NUMERIC RESULT |
| --- | --- | --- | --- |
| CN1CCN(c2cccc3c2C[C@H](NC(=O)c2ccc(OCCC(F)(F)F)nc2)CO3)CC1 | solubility | µM | 379 |
| O=C(N[C@@H]1COc2cccc(-c3ccc(CO)nc3)c2C1)c1ccc(OCCOCC(F)(F)F)nc1 | solubility | µM | 54 |

A: O=C(N[C@@H]1COc2cccc(-c3ccc(CO)nc3)c2C1)c1ccc(OCC(F)(F)F)nc1
B: Cc1cc(-c2cccc3c2C[C@H](NC(=O)c2ccc(OCCOCC(F)(F)F)nc2)CO3)cnc1CO
C: Cc1nn(-c2ccccc2)nc1C(=O)N[C@@H]1COc2cccc(-c3ccncc3)c2C1
D: O=C(N[C@@H]1COc2cccc(-c3ccncc3)c2C1)c1ccc(OCC(F)(F)F)nc1
E: O=C(N[C@@H]1COc2cccc(-c3cccnc3)c2C1)c1ccc(OCC(F)(F)F)nc1
QUERY: Kindly order the items shown according to solubility, from the highest value down. List the labels in the requested order.
RESULT: A, E, B, D, C

---

- PROTOCOL DESCRIPTION: Half life in Sprague-Dawley rat at 10 umol/kg, po
- Format: ADME, organism-based
- TEST CONDITIONS: in vivo
VALUE TYPE: half-life (h)

| SMILES RECORD | MEASUREMENT UNIT | NUMERIC RESULT |
| --- | --- | --- |
| COc1cnc(-c2cccc3c2C[C@H](NC(=O)c2ccc(COCC(F)(F)F)nc2)CO3)cn1 | h | 4.8 |
| O=C(N[C@@H]1COc2cccc(-c3ccc(CO)nc3)c2C1)c1ccc(OCC(F)(F)F)nc1 | h | 3.5 |

---

- Test system: Liver microsomes
- PROTOCOL DESCRIPTION: Intrinsic clearance in rat liver microsomes assessed per ug of protein
- Type: ADME, Microsome
VALUE TYPE: CLint (µL/min/mg)

1: COc1ncc(-c2cccc3c2C[C@H](NC(=O)c2ccc(OCC(F)(F)F)nc2)CO3)cc1F
2: CCCCOc1ccc(C(=O)N[C@@H]2COc3cccc(N4CCN(C)CC4)c3C2)cc1
3: Cc1nn(-c2ccccc2)nc1C(=O)N[C@@H]1COc2cccc(N3CCN(C)CC3)c2C1
4: CN1CCN(c2cccc3c2C[C@H](NC(=O)c2ccc(OC(F)(F)F)cc2)CO3)CC1
QUERY: Rank the listed molecules according to CLint, from the largest value downward. List the labels in the requested order.
RESULT: 2, 4, 1, 3
(2: 82 µL/min/mg, 4: 18 µL/min/mg, 1: 10 µL/min/mg, 3: 4 µL/min/mg)

---

- Test system: Plasma
- PROTOCOL DESCRIPTION: Plasma concentration in formalin-challenged Sprague-Dawley rat at 49 umol/kg, po administered 3 hrs prior to formalin-challenge measured up to 5 mins post formalin challenge
- Assay type: ADME, organism-based
- TEST CONDITIONS: in vivo
VALUE TYPE: concentration (µM)
The reply should contain only the number, in µM.

QUERY: Any idea what concentration came out for COc1cnc(-c2cccc3c2C[C@H](NC(=O)c2ccc(COCC(F)(F)F)nc2)CO3)cn1 on Plasma?
RESULT: 5

---

- TARGET DESC: Sodium channel protein type 9 subunit alpha (Homo sapiens)
- Sequence (Q15858 whole entry): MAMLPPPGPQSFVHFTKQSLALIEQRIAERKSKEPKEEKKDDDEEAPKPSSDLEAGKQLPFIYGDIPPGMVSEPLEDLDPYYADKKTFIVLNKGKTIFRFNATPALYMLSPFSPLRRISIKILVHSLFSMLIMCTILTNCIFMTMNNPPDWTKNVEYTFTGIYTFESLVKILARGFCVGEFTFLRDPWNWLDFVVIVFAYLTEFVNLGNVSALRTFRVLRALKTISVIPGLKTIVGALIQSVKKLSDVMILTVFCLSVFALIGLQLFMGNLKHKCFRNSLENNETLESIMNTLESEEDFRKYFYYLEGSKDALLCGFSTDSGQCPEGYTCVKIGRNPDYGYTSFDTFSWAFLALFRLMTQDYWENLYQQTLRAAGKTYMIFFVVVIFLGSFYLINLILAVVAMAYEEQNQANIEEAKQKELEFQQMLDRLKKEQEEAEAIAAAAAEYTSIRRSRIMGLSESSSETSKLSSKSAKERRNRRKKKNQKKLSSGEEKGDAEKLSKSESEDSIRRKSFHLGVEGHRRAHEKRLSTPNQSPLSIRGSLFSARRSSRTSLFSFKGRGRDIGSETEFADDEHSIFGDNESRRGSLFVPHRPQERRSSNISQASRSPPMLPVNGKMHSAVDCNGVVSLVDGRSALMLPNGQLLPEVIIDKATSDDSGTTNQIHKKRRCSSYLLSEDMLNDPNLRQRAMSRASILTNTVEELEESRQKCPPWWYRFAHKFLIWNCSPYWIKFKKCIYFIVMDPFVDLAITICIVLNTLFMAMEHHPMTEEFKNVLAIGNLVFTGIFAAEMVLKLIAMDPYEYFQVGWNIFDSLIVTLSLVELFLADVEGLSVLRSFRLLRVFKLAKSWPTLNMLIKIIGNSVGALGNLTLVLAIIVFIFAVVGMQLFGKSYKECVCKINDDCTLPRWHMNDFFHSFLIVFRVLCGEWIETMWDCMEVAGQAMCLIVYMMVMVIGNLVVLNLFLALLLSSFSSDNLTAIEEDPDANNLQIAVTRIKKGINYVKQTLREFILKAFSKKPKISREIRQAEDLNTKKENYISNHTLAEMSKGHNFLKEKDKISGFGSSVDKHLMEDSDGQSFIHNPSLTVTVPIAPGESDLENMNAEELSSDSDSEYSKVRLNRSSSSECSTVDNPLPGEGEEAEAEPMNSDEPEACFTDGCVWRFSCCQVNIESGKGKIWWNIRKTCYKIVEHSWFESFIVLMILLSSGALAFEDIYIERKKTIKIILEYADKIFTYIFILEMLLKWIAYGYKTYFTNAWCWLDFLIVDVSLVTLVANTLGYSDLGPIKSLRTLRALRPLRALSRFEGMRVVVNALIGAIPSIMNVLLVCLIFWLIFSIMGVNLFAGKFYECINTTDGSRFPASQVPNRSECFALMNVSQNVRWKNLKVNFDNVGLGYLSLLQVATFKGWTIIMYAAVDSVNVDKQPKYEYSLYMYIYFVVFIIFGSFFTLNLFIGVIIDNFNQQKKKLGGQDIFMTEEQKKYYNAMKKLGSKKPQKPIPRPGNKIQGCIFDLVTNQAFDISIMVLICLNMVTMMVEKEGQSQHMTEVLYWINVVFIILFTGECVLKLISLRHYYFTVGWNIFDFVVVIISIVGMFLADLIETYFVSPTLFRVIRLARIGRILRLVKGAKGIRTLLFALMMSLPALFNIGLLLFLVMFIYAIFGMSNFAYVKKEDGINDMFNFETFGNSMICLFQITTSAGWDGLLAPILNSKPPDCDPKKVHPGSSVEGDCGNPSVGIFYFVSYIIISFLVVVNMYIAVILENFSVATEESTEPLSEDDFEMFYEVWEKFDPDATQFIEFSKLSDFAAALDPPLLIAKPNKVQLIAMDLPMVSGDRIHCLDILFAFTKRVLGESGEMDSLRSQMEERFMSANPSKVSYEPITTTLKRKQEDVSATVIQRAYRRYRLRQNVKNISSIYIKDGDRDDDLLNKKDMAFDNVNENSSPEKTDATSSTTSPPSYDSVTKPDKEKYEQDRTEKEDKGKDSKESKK
- PROTOCOL DESCRIPTION: Inhibition of human NaV1.7 expressed in HEK293 cells by whole-cell voltage clamp assay
- Format: cell-based
VALUE TYPE: IC50 (nM)

Solved cases (3 shown):
| SMILES RECORD | VALUE TYPE | NUMERIC RESULT |
| --- | --- | --- |
| Cc1cnc(-c2cccc3c2C[C@H](NC(=O)c2ccc(OCC(F)(F)F)nc2)CO3)cn1 | IC50 | 79.4 |
| CN1CCN(c2cccc3c2C[C@H](NC(=O)c2ccc(OCC(F)(F)F)nc2)CO3)CC1 | IC50 | 794 |
| COCCn1nc(C)c(C(=O)N[C@@H]2COc3cccc(-c4ccncc4)c3C2)n1 | IC50 | 25100 |

P: Cc1cc(-c2cccc3c2C[C@H](NC(=O)c2ccc(OCCOCC(F)(F)F)nc2)CO3)cnc1CO
Q: Cc1cnc(-c2cccc3c2C[C@H](NC(=O)c2ccc(COCC(F)(F)F)nc2)CO3)cn1
R: Cc1nn(-c2ccccc2)nc1C(=O)N[C@@H]1COc2cccc(N3CCN(C)CC3)c2C1
QUERY: Kindly order the items shown according to IC50, from the highest value down. List the labels in the requested order.
RESULT: P, Q, R
(P: 794 nM, Q: 501 nM, R: 316 nM)

---

- System: Liver microsomes
- PROTOCOL DESCRIPTION: Intrinsic clearance in human liver microsomes assessed per ug of protein
- Type: ADME, Microsome
VALUE TYPE: CLint (µL/min/mg)

| SMILES RECORD | MEASUREMENT UNIT | NUMERIC RESULT |
| --- | --- | --- |
| O=C(N[C@@H]1COc2cccc(-c3ccc(CO)nc3)c2C1)c1ccc(OCC(F)(F)F)nc1 | µL/min/mg | 10 |

A: O=C(N[C@@H]1COc2cccc(-c3ccc(CO)nc3)c2C1)c1ccc(OCCOCC(F)(F)F)nc1
B: O=C(N[C@@H]1COc2cccc(-c3cncnc3)c2C1)c1ccc(OCCC(F)(F)F)nc1
QUERY: Could you point out whether the larger CLint belongs to A or to B ? In your reply, give the label of the chosen option.
RESULT: B

---

- TARGET DESC: Sodium channel protein type 9 subunit alpha (Homo sapiens)
- PROTOCOL DESCRIPTION: Inhibition of human NaV1.7 expressed in HEK293 cells by whole-cell voltage clamp assay
- Format: cell-based
VALUE TYPE: IC50 (nM)

Solved cases (2 shown):
| COMPOUND | IC50 (nM) |
| --- | --- |
| CC(O)c1ccc(-c2cccc3c2C[C@H](NC(=O)c2ccc(OCCOCC(F)(F)F)nc2)CO3)cn1 (some centres undefined) | 794 |
| O=C(N[C@@H]1COc2cccc(-c3ccnc(CO)c3)c2C1)c1ccc(OCC(F)(F)F)nc1 | 501 |

1: O=C(N[C@@H]1COc2cccc(-c3ccc(CO)nc3)c2C1)c1ccc(OCC(F)(F)F)nc1
2: CN1CCN(c2cccc3c2C[C@H](NC(=O)c2ccc(OC(F)(F)F)cc2)CO3)CC1
3: CN1CCN(c2cccc3c2C[C@H](NC(=O)c2ccc(OCCC(F)(F)F)nc2)CO3)CC1
4: COc1cnc(-c2cccc3c2C[C@H](NC(=O)c2ccc(COCC(F)(F)F)nc2)CO3)cn1
5: O=C(N[C@@H]1COc2cccc(-c3ccncc3)c2C1)c1ccc(OC(F)(F)F)cc1
QUERY: Sort the compounds on IC50; start with the lowest figure. List the labels in the requested order.
RESULT: 4, 1, 3, 5, 2
(4: 79.4 nM, 1: 158 nM, 3: 631 nM, 5: 1000 nM, 2: 2000 nM)
